Target of assay: HLA-B*58:01
Experiment: IEDB peptide-MHC binding, purified MHC/direct/fluorescence; filed as Kd, often an IC50 or EC50 that approximates it; bounds were set here for any values at or beyond the usual limits of such assays
Condition label: source organism: Giardia lamblia ATCC 50803
pKd: −log10 of the molar value.
Property measured: pKd

Sample "IHKPRPPAT" — what was its pKd?
≤ 4.70

###

Exercise: state measured pIC50 for each of the sequences provided.
Target of assay: HLA-A*01:01
Experiment: IEDB peptide-MHC binding, purified MHC/competitive/fluorescence; bounds were set here for any values at or beyond the usual limits of such assays
Condition label: source organism: Zaire ebolavirus
Numbers only, as −log10 of the molar value.

Would you mind giving pIC50 for every sequence in the list below?
1. ASENSSAMV
2. EAEKQLQQY

1. 4.36
2. 4.74

###

Target of assay: HLA-A*24:02
Experiment: IEDB peptide-MHC binding, purified MHC/competitive/fluorescence; bounds were set here for any values at or beyond the usual limits of such assays
Condition label: source organism: Vaccinia virus WR
pIC50: −log10 of the molar value.
Property measured: pIC50

Sample "GGILPWTKI" — what was its pIC50?
≤ 4.11

###

Target of assay: HLA-B*83:01
Experiment: IEDB peptide-MHC binding, purified MHC/competitive/fluorescence; filed as Kd, often an IC50 or EC50 that approximates it; bounds were set here for any values at or beyond the usual limits of such assays
Condition label: source organism: human gammaherpesvirus 4
pKd: −log10 of the molar value.
Property measured: pKd

Sample "FTASVSTVV" — what was its pKd?
≤ 5.30

###

Target of assay: HLA-A*26:01
Experiment: IEDB peptide-MHC binding, purified MHC/competitive/fluorescence; filed as Kd, often an IC50 or EC50 that approximates it; bounds were set here for any values at or beyond the usual limits of such assays
Condition label: source organism: Escherichia coli str. K-12 substr. MG1655
Property measured: Kd

Sample "RINEGWPAY" — what was its Kd?
≥ 20 µM

###

Target of assay: HLA-A*68:01
Experiment: IEDB peptide-MHC binding, purified MHC/competitive/radioactivity; filed as Kd, often an IC50 or EC50 that approximates it; bounds were set here for any values at or beyond the usual limits of such assays
Condition label: source organism: SARS coronavirus Tor2
Entries whose Kd is below 300 nM take 1; entries at or above 300 nM take -1.

Completed entries (count: 5):
[[record]]
sequence_entry = "FLAVFQSATK"
discrete_label = 1

[[record]]
sequence_entry = "VFGSTMNNK"
discrete_label = -1

[[record]]
sequence_entry = "QLFKPLTKK"
discrete_label = -1

[[record]]
sequence_entry = "RVPRNLTLSK"
discrete_label = -1

[[record]]
sequence_entry = "YTNEIIGYK"
discrete_label = 1


Please indicate whether the reported Kd of "ATSTRHPSK" is strictly below 300 nM.
1

Entry "MQGAVDINR" please
-1

Entry "KQIANQFNK" please
-1

###

Target of assay: HLA-A*23:01
Experiment: IEDB peptide-MHC binding, purified MHC/competitive/fluorescence; filed as Kd, often an IC50 or EC50 that approximates it; bounds were set here for any values at or beyond the usual limits of such assays
Condition label: source organism: Vibrio parahaemolyticus RIMD 2210633
Property measured: Kd

// lookup Kd | system=HLA-A*23:01 | key= "GTVPTDNPF"
≥ 20 µM
